Reference source: patent US20210230273A1

Target: recombinant human CD200 Fc Chimera (human) (UniProt P41217)
Assay: SPR (Biacore), CD200 captured by anti-Fc (human) on CM5, Fab injected

| BINDER | kon / M⁻¹ s⁻¹ |
| --- | --- |
| TPP-709 (Fab, V domains shown) VH: QVQLVQSGAEVKKPGASVKVSCKASGYSFTDYIILWVRQAPGQRLEWMGHIDPYYGSSNYNLKFKGRVTITRDTSASTAYMELSSLRSEDTAVYYCGRSKRDYFDYWGQGTLVTVSS VL: DIQMTQSPSSLSASVGDRVTITCKASQDINSYLSWFQQKPGKAPKSLIYRANRLVDGVPSRFSGSGSGTDFTLTISSLQPEDFGTYYCLQYDEFPYTFGQGTKLEIK | 1.82e+06 |
